# System: DIV17
# Experiment notes: qHTS profiling for inhibitors of Plasmodium falciparum proliferation (AID 504749); note: nearly all actives have a fitted effect of over 60% in size
# Experimental parameters: P. falciparum in erythrocytes, SYBR Green DNA, 72 h; series mostly up to 28.7 µM
Inconclusive results are not listed. Activity calls are given as the source filed them. Calls come from the whole dose curve; as a rule, active = well fitted inhibition curve with a large enough effect; inconclusive = small, poorly fitted or top-dose-only effect; inactive = flat fitted curve, though single readings scatter.
Parameter call: string, one of class 1 for active, class 0 for inactive

Exercise: Identify the outcome logged in this assay for the molecule shown: `CCC1(C)CC(=O)NC(=O)C1`
Solution: class 0

Exercise: Identify the outcome logged in this assay for the molecule shown: NCC(O)c1cccc(O)c1 (stereo not given)
Solution: class 0

Exercise: Identify the outcome logged in this assay for the molecule shown: `N#CN`
Solution: class 0

Exercise: Identify the outcome logged in this assay for the molecule shown: CC(=O)OC1CN2CCC1CC2 (stereo not given)
Solution: class 0

Exercise: Identify the outcome logged in this assay for the molecule shown: `O[C@H]1[C@H]2[C@H](O)CCCN2C[C@H]1O`
Solution: class 0

Exercise: Identify the outcome logged in this assay for the molecule shown: `N#CC(C#N)=Cc1cc(O)c(O)c(O)c1`
Solution: class 1

Exercise: Identify the outcome logged in this assay for the molecule shown: `O=P(O)(O)C(Cl)(Cl)P(=O)(O)O`
Solution: class 0

Exercise: Identify the outcome logged in this assay for the molecule shown: `O=c1[nH]cc(N(CCCl)CCCl)c(=O)[nH]1`
Solution: class 0

Exercise: Identify the outcome logged in this assay for the molecule shown: `O=Cc1ccco1`
Solution: class 0

Exercise: Identify the outcome logged in this assay for the molecule shown: `Oc1cccc[c]1[Hg][Cl]`
Solution: class 1

Exercise: Identify the outcome logged in this assay for the molecule shown: `N#CC1(N2CCCCC2)CCCCC1`
Solution: class 0

Exercise: Identify the outcome logged in this assay for the molecule shown: `Clc1ccc(C2(Cn3cncn3)OCCO2)c(Cl)c1`
Solution: class 0

Exercise: Identify the outcome logged in this assay for the molecule shown: ClC1C(Cl)C(Cl)C(Cl)C(Cl)C1Cl (stereo not given)
Solution: class 0

Exercise: Identify the outcome logged in this assay for the molecule shown: `C=CCN(C1=NCCN1)c1c(Cl)cccc1Cl`
Solution: class 0

Exercise: Identify the outcome logged in this assay for the molecule shown: `c1ccc(C2(N3CCCC3)CCCCC2)cc1`
Solution: class 1

Exercise: Identify the outcome logged in this assay for the molecule shown: `CNC(=O)OCC[N+](C)(C)C`
Solution: class 0

Exercise: Identify the outcome logged in this assay for the molecule shown: `O=[N+]([O-])C(Br)(CO)CO`
Solution: class 0

Exercise: Identify the outcome logged in this assay for the molecule shown: `COC1=CC=C2[C@H]3Cc4ccc(OC)c5c4[C@@]2(CCN3C)[C@H]1O5`
Solution: class 0

Exercise: Identify the outcome logged in this assay for the molecule shown: CCNC(C)Cc1cccc(C(F)(F)F)c1 (stereo not given)
Solution: class 0

Exercise: Identify the outcome logged in this assay for the molecule shown: `COc1ccc2c3c1O[C@H]1C(=O)CC[C@H]4[C@@H](C2)N(C)CC[C@]314`
Solution: class 0

Exercise: Identify the outcome logged in this assay for the molecule shown: CN1c2ccccc2C(NCCCCCCC(=O)O)c2ccc(Cl)cc2S1(=O)=O (stereo not given)
Solution: class 0

Exercise: Identify the outcome logged in this assay for the molecule shown: O=C(CS(=O)C(c1ccccc1)c1ccccc1)NO (stereo not given)
Solution: class 0

Exercise: Identify the outcome logged in this assay for the molecule shown: CC(C)(O)C1C2OC(=O)C1C1(O)CC3OC34C(=O)OC2C14C (stereo not given)
Solution: class 0

Exercise: Identify the outcome logged in this assay for the molecule shown: CCCC(C)C1(CC)C(=O)NC(=O)NC1=O (stereo not given)
Solution: class 0

Exercise: Identify the outcome logged in this assay for the molecule shown: ClCC1CO1 (stereo not given)
Solution: class 0

Exercise: Identify the outcome logged in this assay for the molecule shown: `[O]=[Cr](=[O])([OH])[O][Cr](=[O])(=[O])[OH]`
Solution: class 0

Exercise: Identify the outcome logged in this assay for the molecule shown: `O=C(O)C(Cl)(Cl)Cl`
Solution: class 0

Exercise: Identify the outcome logged in this assay for the molecule shown: `O=[N+]([O-])c1ccccc1`
Solution: class 0

Exercise: Identify the outcome logged in this assay for the molecule shown: O=C1CC[C@@]2(O)C3Cc4ccc(O)c5c4C2(CCN3CC2CC2)[C@H]1O5 (stereo not given in full)
Solution: class 0

Exercise: Identify the outcome logged in this assay for the molecule shown: `O=C/C=C/c1ccccc1`
Solution: class 0

Exercise: Identify the outcome logged in this assay for the molecule shown: CNC(C)C(O)c1ccc(O)cc1 (stereo not given)
Solution: class 0

Exercise: Identify the outcome logged in this assay for the molecule shown: `O=[N+]([O-])c1cc(I)c(O)c(I)c1`
Solution: class 0

Exercise: Identify the outcome logged in this assay for the molecule shown: `C=CCN1CC[C@]23c4c5ccc(O)c4O[C@H]2[C@@H](O)C=C[C@H]3[C@H]1C5`
Solution: class 0

Exercise: Identify the outcome logged in this assay for the molecule shown: O=C1CCCCC1CN1CCCCC1 (stereo not given)
Solution: class 0

Exercise: Identify the outcome logged in this assay for the molecule shown: C[C@H]1CC[C@@H]2[C@@H](C)[C@H]3[C@H](C[C@H]4[C@@H]5CC=C6CC(O[C@@H]7O[C@H](CO)[C@H](O)[C@H](O[C@@H]8O[C@H](CO)[C@@H](O)[C@H](O)[C@H]8O)[C@H]7O[C@H]7O[C@@H](C)[C@H](O)[C@@H](O)[C@H]7O)CC[C@]6(C)[C@H]5CC[C@]34C)N2C1 (stereo not given in full)
Solution: class 0

Exercise: Identify the outcome logged in this assay for the molecule shown: COC([CH2][Hg])CNC(=O)c1ccccc1OCC(=O)O (stereo not given)
Solution: class 0

Exercise: Identify the outcome logged in this assay for the molecule shown: C[N+]1(C)CCCCC1COC(=O)C(O)(c1ccccc1)c1ccccc1 (stereo not given)
Solution: class 0

Exercise: Identify the outcome logged in this assay for the molecule shown: `CCCCCl`
Solution: class 0

Exercise: Identify the outcome logged in this assay for the molecule shown: C#CC(C)(O)CC (stereo not given)
Solution: class 0

Exercise: Identify the outcome logged in this assay for the molecule shown: C[N+]1(C)C2CCC1CC(OC(=O)c1c[nH]c3ccccc13)C2 (stereo not given)
Solution: class 0

Exercise: Identify the outcome logged in this assay for the molecule shown: `CCCCCCCCCC(=O)O[C@H]1CC[C@H]2[C@@H]3CCC4=CC(=O)CC[C@]4(C)[C@H]3CC[C@]12C`
Solution: class 0

Exercise: Identify the outcome logged in this assay for the molecule shown: CCCCNCC(O)c1ccc(O)cc1 (stereo not given)
Solution: class 0

Exercise: Identify the outcome logged in this assay for the molecule shown: CNC1(c2ccccc2Cl)CCCCC1=O (stereo not given)
Solution: class 1

Exercise: Identify the outcome logged in this assay for the molecule shown: CC(N)Cc1ccc(O)cc1 (stereo not given)
Solution: class 0

Exercise: Identify the outcome logged in this assay for the molecule shown: `Clc1ccccc1Cl`
Solution: class 0

----------
# Experiment notes: Cell Viability - SK-N-SH (AID 435);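 note: compound exposure lasted 40 h at 37 °C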
# Experimental parameters: SK-N-SH neuroblastoma cell viability qHTS
Results filed as inconclusive are left out. Calls of active or inactive are those of the source. Calls come from the whole dose curve.
Parameter call: string, one of active, inactive

Exercise: Identify the outcome logged in this assay for the compound shown: `CCCCCCCCOC(=O)c1ccccc1C(=O)OCCCCCCCC`
Solution: inactive

Exercise: Identify the outcome logged in this assay for the compound shown: `CC(C)Nc1ccc(Nc2ccccc2)cc1`
Solution: active

Exercise: Identify the outcome logged in this assay for the compound shown: `CC(C)(C)c1cc(O)ccc1O`
Solution: inactive

Exercise: Identify the outcome logged in this assay for the compound shown: `C[C@]12CCC(=O)C[C@@H]1CC[C@@H]1[C@@H]2CC[C@]2(C)[C@@H](O)CC[C@@H]12`
Solution: inactive

Exercise: Identify the outcome logged in this assay for the compound shown: `NNC(N)=O`
Solution: inactive

Exercise: Identify the outcome logged in this assay for the compound shown: `O=Cc1ccco1`
Solution: inactive

Exercise: Identify the outcome logged in this assay for the compound shown: `COC1=CC(=O)O[C@@H](/C=C/c2ccccc2)C1`
Solution: inactive

Exercise: Identify the outcome logged in this assay for the compound shown: `S=C=S`
Solution: inactive

Exercise: Identify the outcome logged in this assay for the compound shown: `C=CCN=C=S`
Solution: inactive

----------
# System: KB-3-1
# Experiment notes: Cytotoxic Profiling of Annotated Libraries Using Quantitative High-Throughput Screening (AID 1296008); note: % is set by controls: 0 for no effect and ±100 for the full control effect; nearly all actives have a fitted effect of over 60% in size
# Experimental parameters: Five cell lines viability, CellTiter-Glo ATP luminescence, 48-72 h; stronger effect = lower value
Results filed as inconclusive are left out.
Measured quantity: max response (%)
// return numeric value only (unit: %, not printed)

Exercise: Which max response value belongs to `CN(C)CCc1c[nH]c2ccc(CN3CCN(C)S3(=O)=O)cc12` ?
Solution: -6.8

Exercise: Which max response value belongs to `CC(C)(O)[C@H]1O[C@H]2CC[C@@]3(C)[C@@](O)(CC[C@H]4Cc5c([nH]c6ccccc56)[C@@]43C)C2=CC1=O` ?
Solution: 9.13

Exercise: Which max response value belongs to CCCC(=O)OC(C(Cl)(Cl)Cl)P(=O)(OC)OC (stereo not drawn) ?
Solution: -2.33

Exercise: Which max response value belongs to COCC(C)N(C(=O)CCl)c1c(C)csc1C (stereo not drawn) ?
Solution: -0.17

Exercise: Which max response value belongs to CN(C(=O)Cc1ccccc1)C(CN1CCCC1)c1ccccc1 (stereo not drawn) ?
Solution: -9.97

Exercise: Which max response value belongs to `CCCCCc1cc(O)c2c(c1)OC(C)(C)[C@@H]1CCC(C)=C[C@@H]21` ?
Solution: -12.3

Exercise: Which max response value belongs to `C[C@@H](Cc1ccccc1)NCCC(c1ccccc1)c1ccccc1` ?
Solution: -4.5

Exercise: Which max response value belongs to `CCC1(CC)C(=O)NC(=O)N(C)C1=O` ?
Solution: -2.91

Exercise: Which max response value belongs to `C[C@]12C[C@H]3S[C@H]3C[C@@H]1CC[C@@H]1[C@@H]2CC[C@]2(C)[C@@H](O)CC[C@@H]12` ?
Solution: 5.47

Exercise: Which max response value belongs to `CCOP(=O)(OCC)O/C(=C/Cl)c1ccc(Cl)cc1Cl` ?
Solution: 11.5

Exercise: Which max response value belongs to CCC1(c2ccccc2)C(=O)NC(=O)N(C)C1=O (stereo not drawn) ?
Solution: -7.5

Exercise: Which max response value belongs to `CN(C)[C@H](Cc1ccccc1)c1ccccc1` ?
Solution: 1.61

Exercise: Which max response value belongs to `c1ccc(C2(N3CCCC3)CCCCC2)cc1` ?
Solution: 2

Exercise: Which max response value belongs to CC(=O)OC1CC(O)C(C)(C)C2CC(OC(C)=O)C3(C)C(CCC4(C)C(c5ccoc5)C(=O)C5OC543)C12C (stereo not drawn) ?
Solution: 4.61

Exercise: Which max response value belongs to `CC1=C2C[C@H]3[C@@H](CC=C4C[C@@H](O)CC[C@@]43C)[C@@H]2CC[C@]12O[C@@H]1C[C@H](C)CN[C@H]1[C@H]2C` ?
Solution: 1.29

Exercise: Which max response value belongs to ClC1C(Cl)C(Cl)C(Cl)C(Cl)C1Cl (stereo not drawn) ?
Solution: 2.37

Exercise: Which max response value belongs to O=C(NCNC(=O)NC1C(=O)NC(=O)N1CO)NC1C(=O)NC(=O)N1CO (stereo not drawn) ?
Solution: 2.87

Exercise: Which max response value belongs to `ClC=C(Cl)Cl` ?
Solution: -14.2

Exercise: Which max response value belongs to CN1c2ccccc2C(NCCCCCCC(=O)O)c2ccc(Cl)cc2S1(=O)=O (stereo not drawn) ?
Solution: -15.2

Exercise: Which max response value belongs to `O=[N+]([O-])c1ccccc1` ?
Solution: 12.1

Exercise: Which max response value belongs to `CCN1C[C@]2(COC)[C@H](O)C[C@H](OC)[C@]34[C@@H]5C[C@]6(O)[C@H](OC(=O)c7ccccc7)[C@@H]5[C@@](O)([C@H]([C@H](OC)[C@H]23)[C@@H]14)[C@@H](O)[C@@H]6OC` ?
Solution: 2.1

Exercise: Which max response value belongs to `N#CC(C#N)=Cc1cc(O)c(O)c(O)c1` ?
Solution: -23.8

Exercise: Which max response value belongs to `CN1CCC[C@@H]1Cc1c[nH]c2ccc(Nc3ncccc3[N+](=O)[O-])cc12` ?
Solution: -5.99

Exercise: Which max response value belongs to `S=C=S` ?
Solution: -1.39

Exercise: Which max response value belongs to `O=C(O)C(Cl)(Cl)Cl` ?
Solution: -15.3

Exercise: Which max response value belongs to `COc1ccccc1CN[C@H]1C2CCN(CC2)[C@H]1C(c1ccccc1)c1ccccc1` ?
Solution: -8.54

Exercise: Which max response value belongs to `CCC(=O)O[C@@](Cc1ccccc1)(c1ccccc1)[C@@H](C)CN(C)C` ?
Solution: -0.686

Exercise: Which max response value belongs to `N#CC1(N2CCCCC2)CCCCC1` ?
Solution: 9.38

Exercise: Which max response value belongs to C/C=C(\C)C(=O)OC1C(C)OC(OC2C(C)OC(OC3CCC4(C)C(=CCC5C4CCC4(C)C(C(C)OC6OC(COC7OC(CO)C(O)C(O)C7O)C(O)C(O)C6O)CCC54O)C3)CC2OC)C(O)C1OC (stereo not drawn) ?
Solution: 0.359

Exercise: Which max response value belongs to CC(Cc1ccccc1)NC=O (stereo not drawn) ?
Solution: 2

Exercise: Which max response value belongs to COC(=O)C1(C)CCC(=O)C2(C)c3c(O)cc(C(C)C)cc3C(O)C(OC(C)=O)C12 (stereo not drawn) ?
Solution: 0.842

Exercise: Which max response value belongs to `CCN(CC)C(=O)/C(Cl)=C(\C)OP(=O)(OC)OC` ?
Solution: -1.44

Exercise: Which max response value belongs to `C[C@@](O)(COc1ccc(C#N)cc1)C(=O)Nc1ccc(C#N)c(C(F)(F)F)c1` ?
Solution: 2.83
